Hello, the source for this data is ChEMBL document CHEMBL4229455, in case you need it.

# Test system: T47D
# test-name: Cytotoxicity against human T47D cells assessed as cell growth at 10 uM after 48 hrs by SRB assay relative to control
# Type: functional
# condition-notes: read-out: Activity
measured-parameter: growth at 10 µM

Please review the entries below; each comes with its answer.
- O=C1C2=C(C(=O)N1O)c1cn(c3ccccc13)CCCCCCn1cc2c2ccccc21: 104%
- Cn1cc(C2=C(c3cn(CCCCCC(=O)O)c4ccccc34)C(=O)N(O)C2=O)c2ccccc21: 85.4%
- CC(C)n1cc(C2=C(c3cn(C)c4ccccc34)C(=O)N(O)C2=O)c2ccccc21: 87.3%
- O=C(O)CCCCCn1cc(C2=C(c3c[nH]c4ccccc34)C(=O)N(O)C2=O)c2ccccc21: 96.2%
- CC(C)n1cc(C2=C(c3c[nH]c4ccccc34)C(=O)N(O)C2=O)c2ccccc21: 86.7%

Which value of growth at 10 µM has been reported for Cn1cc(C2=C(c3cn(C)c4ccccc34)C(=O)N(O)C2=O)c2ccccc21 in the records?
96.4%

---

# test-target: CDK2/Cyclin A2 (Homo sapiens, UniProt P24941)
# test-name: Inhibition of full length human CDK2/cyclin A using histone H1 as substrate in presence of [gamma-33P]ATP
measured-parameter: IC50

- CC(C)n1cc(C2=C(c3cn(C)c4ccccc34)C(=O)N(O)C2=O)c2ccccc21: 7 µM

Which value of IC50 has been reported for O=C1C(c2c[nH]c3ccccc23)=C(c2c[nH]c3ncccc23)C(=O)N1O in the records?
> 10 µM

Which value of IC50 has been reported for Cn1cc(C2=C(c3cn(C)c4ccccc34)C(=O)N(O)C2=O)c2ccccc21 in the records?
> 10 µM

Which value of IC50 has been reported for O=C1C2=C(C(=O)N1O)c1cn(c3ccccc13)CCCCCCn1cc2c2ccccc21 in the records?
> 10 µM

Which value of IC50 has been reported for Cn1cc(C2=C(c3cn(C)c4ncccc34)C(=O)NC2=O)c2ccccc21 in the records?
0.1 µM

Which value of IC50 has been reported for CCn1cc(C2=C(c3cn(C(C)C)c4ccccc34)C(=O)N(O)C2=O)c2ccccc21 in the records?
> 10 µM

---

# test-target: Serine/threonine-protein kinase haspin (Homo sapiens) (UniProt Q8TF76)
# Sequence (Q8TF76 whole entry, the tested form may be a part): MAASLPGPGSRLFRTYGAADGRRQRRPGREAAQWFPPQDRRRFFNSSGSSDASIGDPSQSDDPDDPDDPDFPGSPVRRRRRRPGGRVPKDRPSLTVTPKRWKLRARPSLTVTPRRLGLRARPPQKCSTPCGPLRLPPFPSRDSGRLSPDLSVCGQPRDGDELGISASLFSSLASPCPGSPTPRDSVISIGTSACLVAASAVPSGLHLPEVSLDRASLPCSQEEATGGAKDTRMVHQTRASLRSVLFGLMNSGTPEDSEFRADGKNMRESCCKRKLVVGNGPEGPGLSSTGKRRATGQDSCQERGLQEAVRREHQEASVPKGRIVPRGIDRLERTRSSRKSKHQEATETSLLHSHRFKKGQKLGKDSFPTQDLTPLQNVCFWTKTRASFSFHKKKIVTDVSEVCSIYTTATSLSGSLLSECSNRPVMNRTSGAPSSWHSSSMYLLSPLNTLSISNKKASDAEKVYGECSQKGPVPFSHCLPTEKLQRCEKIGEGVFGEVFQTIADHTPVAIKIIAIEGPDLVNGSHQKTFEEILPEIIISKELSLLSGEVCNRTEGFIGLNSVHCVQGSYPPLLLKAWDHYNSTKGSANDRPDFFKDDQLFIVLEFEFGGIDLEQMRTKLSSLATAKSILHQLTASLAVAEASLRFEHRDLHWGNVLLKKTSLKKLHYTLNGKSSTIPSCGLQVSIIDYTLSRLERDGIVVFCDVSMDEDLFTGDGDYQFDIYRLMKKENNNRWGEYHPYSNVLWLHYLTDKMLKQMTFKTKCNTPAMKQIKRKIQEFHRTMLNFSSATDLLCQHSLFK
# test-name: Inhibition of recombinant human haspin kinase domain expressed in bacteria assessed as residual activity at 10 uM using histone H3 (1 to 21 residues) peptide as substrate in presence of [gamma-33P]ATP
measured-parameter: Activity (%)
Field format: number, assumed %, no unit text.

• CC(C)n1cc(C2=C(c3cn(C)c4ccccc34)C(=O)N(O)C2=O)c2ccccc21 = 127
• O=C1C2=C(C(=O)N1O)c1cn(c3ccccc13)CCCCCCn1cc2c2ccccc21 = 134
• O=C(O)CCCCCn1cc(C2=C(c3c[nH]c4ccccc34)C(=O)N(O)C2=O)c2ccccc21 = 113
• N#CCCCCCn1cc(C2=C(c3cn(CCCCCC#N)c4ccccc34)C(=O)NC2=O)c2ccccc21 = 134

# next compound below
Which value of Activity has been reported for CCn1cc(C2=C(c3cn(C(C)C)c4ccccc34)C(=O)N(O)C2=O)c2ccccc21 in the records?
114

---

# test-target: UniProtKB Q63470
# test-name: Inhibition of recombinant rat DYRK1A kinase domain expressed in bacteria using KKISGRLSPIMTEQ as substrate in presence of [gamma-33P]ATP
measured-parameter: pIC50
Notebook: values listed as pIC50 are -log10 of the concentration (mol/L).

* O=C(O)CCCCCn1cc(C2=C(c3c[nH]c4ccccc34)C(=O)N(O)C2=O)c2ccccc21 | 5.70

# next compound below
Param readout = pIC50; param system = UniProtKB Q63470; param query = Cn1cc(C2=C(c3cn(CCCCCC(=O)O)c4ccccc34)C(=O)N(O)C2=O)c2ccccc21 ; response: value
6.00
